Recorded Percentage inhibition of kinase enzyme activity values for a group of compounds are listed next.
target: EPHB2 (Homo sapiens, UniProt P29323); construct: purchased Carna Biosciences; assay: Kinase panel profiling at 1 µmol/L (mobility shift assay, Carna); assay type: biochemical; settings: 1 µmol/L of BTK inhibitor
Sequence (P29323 19-1055): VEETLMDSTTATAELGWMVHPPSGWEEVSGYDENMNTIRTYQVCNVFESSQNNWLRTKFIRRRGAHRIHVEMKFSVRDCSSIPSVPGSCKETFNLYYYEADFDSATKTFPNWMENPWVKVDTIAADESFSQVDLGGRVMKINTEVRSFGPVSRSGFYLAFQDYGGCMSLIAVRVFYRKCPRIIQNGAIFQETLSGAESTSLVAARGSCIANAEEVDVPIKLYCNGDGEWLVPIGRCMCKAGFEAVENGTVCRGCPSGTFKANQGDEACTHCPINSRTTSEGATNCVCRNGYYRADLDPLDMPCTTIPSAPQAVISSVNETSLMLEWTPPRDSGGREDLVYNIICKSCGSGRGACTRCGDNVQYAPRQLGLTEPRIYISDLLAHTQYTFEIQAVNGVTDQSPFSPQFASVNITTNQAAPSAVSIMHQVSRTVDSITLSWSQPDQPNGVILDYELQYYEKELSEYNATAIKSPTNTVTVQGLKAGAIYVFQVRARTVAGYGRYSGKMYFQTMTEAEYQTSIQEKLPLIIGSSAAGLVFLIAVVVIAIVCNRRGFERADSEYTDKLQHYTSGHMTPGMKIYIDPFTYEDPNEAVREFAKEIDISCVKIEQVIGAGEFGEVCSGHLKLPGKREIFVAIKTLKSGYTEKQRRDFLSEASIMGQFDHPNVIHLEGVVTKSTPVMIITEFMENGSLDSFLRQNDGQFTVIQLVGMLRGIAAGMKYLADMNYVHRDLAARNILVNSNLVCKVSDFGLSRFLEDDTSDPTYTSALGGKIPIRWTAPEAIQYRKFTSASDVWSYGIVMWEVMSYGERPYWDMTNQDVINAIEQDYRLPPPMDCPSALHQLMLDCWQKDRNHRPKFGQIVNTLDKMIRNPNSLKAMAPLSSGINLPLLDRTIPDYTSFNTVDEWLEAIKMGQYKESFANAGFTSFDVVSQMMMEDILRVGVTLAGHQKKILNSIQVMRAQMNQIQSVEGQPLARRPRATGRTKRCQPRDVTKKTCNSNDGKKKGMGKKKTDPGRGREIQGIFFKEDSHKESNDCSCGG
Your answer is read as %, so omit the unit and give the number.

Here are 4 compounds together with their reported answers.
C=CC(=O)N1CCC([C@@H]2CCNc3c(C(N)=O)c(-c4ccc(Oc5ccccc5)cc4)nn32)CC1 = -1.32
O=C(c1ccc(Oc2ccccc2)cc1Cl)c1c[nH]c2ncnc(N[C@@H]3CC[C@@H](CO)OC3)c12 = 48.93
COc1ccc(F)cc1C(=O)NCc1ccc(-c2nn([C@@H](C)C(F)(F)F)c(N)c2C(N)=O)cc1 = 6.14
CC#CC(=O)N1CCC[C@H]1c1nc(-c2ccc(C(=O)Nc3ccccn3)cc2)c2c(N)nccn12 = -0.11

Now look at this one.
Exam item: What value of measured Percentage inhibition of kinase enzyme activity is listed for C=CC(=O)N1CCC[C@@H](n2nc(-c3ccc(Oc4ccccc4)cc3)c3c(N)ncnc32)C1 ?
Marked response: 27.83

----------
Recorded Percentage inhibition of kinase enzyme activity values for a group of molecules are listed next.
molecular target: RSK4 (Homo sapiens); construct: purchased Carna Biosciences; assay: Kinase panel profiling at 1 µmol/L (mobility shift assay, Carna); format: biochemical; conditions: 1 µmol/L of BTK inhibitor
Your answer is read as %, so omit the unit and give the number.

Here are 3 molecules together with their reported answers.
C=CC(=O)N1CCC[C@@H](n2nc(-c3ccc(Oc4ccccc4)cc3)c3c(N)ncnc32)C1 = 5.52
O=C(c1ccc(Oc2ccccc2)cc1Cl)c1c[nH]c2ncnc(N[C@@H]3CC[C@@H](CO)OC3)c12 = -2.32
COc1ccc(F)cc1C(=O)NCc1ccc(-c2nn([C@@H](C)C(F)(F)F)c(N)c2C(N)=O)cc1 = -0.12

Now look at this one.
Exam item: What value of measured Percentage inhibition of kinase enzyme activity is listed for CC#CC(=O)N1CCC[C@H]1c1nc(-c2ccc(C(=O)Nc3ccccn3)cc2)c2c(N)nccn12 ?
Marked response: 4.21

----------
target: AXL (Homo sapiens, UniProt P30530); construct: purchased Carna Biosciences; test: Kinase panel profiling at 1 µmol/L (mobility shift assay, Carna); type: biochemical; conditions: 1 µmol/L of BTK inhibitor
Sequence (P30530 26-894): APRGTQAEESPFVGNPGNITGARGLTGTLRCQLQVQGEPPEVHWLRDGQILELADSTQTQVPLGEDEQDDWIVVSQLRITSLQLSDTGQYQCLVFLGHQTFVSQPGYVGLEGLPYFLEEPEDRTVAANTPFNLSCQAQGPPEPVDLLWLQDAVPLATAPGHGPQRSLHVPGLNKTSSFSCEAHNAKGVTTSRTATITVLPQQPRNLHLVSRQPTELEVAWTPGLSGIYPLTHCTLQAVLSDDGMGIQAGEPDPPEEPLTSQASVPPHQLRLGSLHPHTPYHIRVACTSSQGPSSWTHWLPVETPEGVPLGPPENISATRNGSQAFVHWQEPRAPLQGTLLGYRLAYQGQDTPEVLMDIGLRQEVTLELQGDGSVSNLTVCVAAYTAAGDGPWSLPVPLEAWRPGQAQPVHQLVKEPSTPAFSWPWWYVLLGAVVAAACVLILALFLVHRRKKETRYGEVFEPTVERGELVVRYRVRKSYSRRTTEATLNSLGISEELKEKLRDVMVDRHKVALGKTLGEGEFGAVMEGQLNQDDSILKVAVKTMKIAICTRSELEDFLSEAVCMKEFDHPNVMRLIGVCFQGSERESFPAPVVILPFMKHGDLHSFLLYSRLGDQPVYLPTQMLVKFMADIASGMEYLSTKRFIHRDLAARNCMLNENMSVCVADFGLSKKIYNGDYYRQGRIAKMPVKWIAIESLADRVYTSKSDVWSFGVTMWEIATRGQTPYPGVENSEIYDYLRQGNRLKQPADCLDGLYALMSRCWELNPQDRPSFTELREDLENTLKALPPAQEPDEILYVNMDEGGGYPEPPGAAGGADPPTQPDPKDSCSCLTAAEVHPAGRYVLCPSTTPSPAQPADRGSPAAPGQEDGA
endpoint_label: Percentage inhibition of kinase enzyme activity (%)
Your answer is read as %, so omit the unit and give the number.

Here are 3 compounds together with their reported answers.
C=CC(=O)N1CCC[C@@H](n2nc(-c3ccc(Oc4ccccc4)cc3)c3c(N)ncnc32)C1 = 8.97
CC#CC(=O)N1CCC[C@H]1c1nc(-c2ccc(C(=O)Nc3ccccn3)cc2)c2c(N)nccn12 = -0.46
O=C(c1ccc(Oc2ccccc2)cc1Cl)c1c[nH]c2ncnc(N[C@@H]3CC[C@@H](CO)OC3)c12 = 84.52

Now look at this one.
Exam item: Item: COc1ccc(F)cc1C(=O)NCc1ccc(-c2nn([C@@H](C)C(F)(F)F)c(N)c2C(N)=O)cc1 Test system: AXL (Homo sapiens, UniProt P30530) Read-out: Percentage inhibition of kinase enzyme activity Value: ?
Marked response: -1.48

----------
biological target: ROCK2 (Homo sapiens); construct: purchased Carna Biosciences; experiment: Kinase panel profiling at 1 µmol/L (mobility shift assay, Carna); type: biochemical; conditions: 1 µmol/L of BTK inhibitor
Sequence (O75116 whole entry): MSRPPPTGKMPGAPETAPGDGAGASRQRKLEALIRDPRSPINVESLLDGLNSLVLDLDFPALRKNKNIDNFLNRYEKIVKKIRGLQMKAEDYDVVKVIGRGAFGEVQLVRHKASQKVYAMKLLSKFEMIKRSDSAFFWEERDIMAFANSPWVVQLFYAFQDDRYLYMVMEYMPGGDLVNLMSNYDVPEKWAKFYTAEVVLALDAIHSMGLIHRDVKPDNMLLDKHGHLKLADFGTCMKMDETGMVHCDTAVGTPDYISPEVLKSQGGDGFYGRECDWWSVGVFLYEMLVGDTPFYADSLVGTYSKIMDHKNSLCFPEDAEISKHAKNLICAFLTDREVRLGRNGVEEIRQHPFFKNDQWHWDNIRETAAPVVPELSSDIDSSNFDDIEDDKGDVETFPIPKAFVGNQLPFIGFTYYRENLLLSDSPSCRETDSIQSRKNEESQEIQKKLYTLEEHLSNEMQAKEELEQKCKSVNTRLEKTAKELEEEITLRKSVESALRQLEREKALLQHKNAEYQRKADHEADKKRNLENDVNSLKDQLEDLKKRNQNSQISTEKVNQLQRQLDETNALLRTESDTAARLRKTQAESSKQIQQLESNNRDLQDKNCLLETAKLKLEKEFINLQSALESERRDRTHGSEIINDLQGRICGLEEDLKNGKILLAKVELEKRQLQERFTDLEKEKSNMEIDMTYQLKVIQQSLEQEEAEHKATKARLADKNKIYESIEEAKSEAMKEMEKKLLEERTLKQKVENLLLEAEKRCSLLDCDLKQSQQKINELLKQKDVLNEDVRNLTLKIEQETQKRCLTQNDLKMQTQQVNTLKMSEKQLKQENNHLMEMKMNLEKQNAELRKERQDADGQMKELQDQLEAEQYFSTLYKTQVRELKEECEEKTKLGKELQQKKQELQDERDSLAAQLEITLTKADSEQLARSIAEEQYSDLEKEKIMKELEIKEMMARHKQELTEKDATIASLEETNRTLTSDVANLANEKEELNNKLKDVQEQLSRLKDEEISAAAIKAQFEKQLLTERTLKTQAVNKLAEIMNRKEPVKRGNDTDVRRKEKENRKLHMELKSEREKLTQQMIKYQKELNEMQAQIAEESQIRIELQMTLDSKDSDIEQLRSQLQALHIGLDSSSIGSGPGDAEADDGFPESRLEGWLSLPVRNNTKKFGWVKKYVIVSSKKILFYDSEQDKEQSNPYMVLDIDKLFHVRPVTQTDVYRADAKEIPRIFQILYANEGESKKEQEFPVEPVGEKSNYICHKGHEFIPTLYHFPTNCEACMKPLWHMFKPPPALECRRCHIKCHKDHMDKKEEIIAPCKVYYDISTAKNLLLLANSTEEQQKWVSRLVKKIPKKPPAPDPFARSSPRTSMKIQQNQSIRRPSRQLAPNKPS
endpoint_label: Percentage inhibition of kinase enzyme activity (%)
Your answer is read as %, so omit the unit and give the number.

COc1ccc(F)cc1C(=O)NCc1ccc(-c2nn([C@@H](C)C(F)(F)F)c(N)c2C(N)=O)cc1 [pirtobrutinib] = 1.18
O=C(c1ccc(Oc2ccccc2)cc1Cl)c1c[nH]c2ncnc(N[C@@H]3CC[C@@H](CO)OC3)c12 [nemtabrutinib] = 15.55

Exam item: What value of measured Percentage inhibition of kinase enzyme activity is listed for CC#CC(=O)N1CCC[C@H]1c1nc(-c2ccc(C(=O)Nc3ccccn3)cc2)c2c(N)nccn12 [acalabrutinib] ?
Marked response: -2.29

Exam item: What value of measured Percentage inhibition of kinase enzyme activity is listed for C=CC(=O)N1CCC[C@@H](n2nc(-c3ccc(Oc4ccccc4)cc3)c3c(N)ncnc32)C1 [ibrutinib] ?
Marked response: 3.74

----------
system: LS411N; assay: Cell viability assay (ATPlite); type: cell-based; conditions: Homo sapiens, LS-411N; LS411N cell line, 72 hours incubation
endpoint_label: IC50 (µM)
Your answer is read as µM, so omit the unit and give the number.

Exam item: Item: O=C(c1ccc(Oc2ccccc2)cc1Cl)c1c[nH]c2ncnc(N[C@@H]3CC[C@@H](CO)OC3)c12 Test system: LS411N Read-out: IC50 Value: ?
Marked response: 0.767

----------
target: HCK (Homo sapiens, UniProt P08631); construct: purchased Carna Biosciences; assay: Kinase panel profiling at 1 µmol/L (mobility shift assay, Carna); type: biochemical; details: 1 µmol/L of BTK inhibitor
Sequence (P08631 whole entry): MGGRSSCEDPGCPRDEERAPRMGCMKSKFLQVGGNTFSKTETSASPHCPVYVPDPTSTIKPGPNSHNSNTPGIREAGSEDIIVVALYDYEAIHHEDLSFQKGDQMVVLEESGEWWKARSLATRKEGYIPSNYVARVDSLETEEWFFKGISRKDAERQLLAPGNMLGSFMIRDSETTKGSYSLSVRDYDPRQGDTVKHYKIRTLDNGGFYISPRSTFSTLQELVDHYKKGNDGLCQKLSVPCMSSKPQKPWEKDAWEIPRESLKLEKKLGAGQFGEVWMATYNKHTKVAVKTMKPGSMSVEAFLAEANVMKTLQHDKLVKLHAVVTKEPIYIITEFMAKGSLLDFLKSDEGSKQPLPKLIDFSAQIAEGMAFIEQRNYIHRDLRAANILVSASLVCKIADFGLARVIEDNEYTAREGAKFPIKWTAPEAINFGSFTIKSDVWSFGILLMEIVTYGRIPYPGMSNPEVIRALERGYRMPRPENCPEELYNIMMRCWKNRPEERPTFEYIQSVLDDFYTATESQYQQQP
Recorded Percentage inhibition of kinase enzyme activity values for a group of molecules are listed next.
Give the number first and the unit second.

Here are 3 molecules together with their reported answers.
C=CC(=O)N1CCC[C@@H](n2nc(-c3ccc(Oc4ccccc4)cc3)c3c(N)ncnc32)C1 = 99.66%
CC#CC(=O)N1CCC[C@H]1c1nc(-c2ccc(C(=O)Nc3ccccn3)cc2)c2c(N)nccn12 = 0.45%
O=C(c1ccc(Oc2ccccc2)cc1Cl)c1c[nH]c2ncnc(N[C@@H]3CC[C@@H](CO)OC3)c12 = 96.80%

Exam item: What value of measured Percentage inhibition of kinase enzyme activity is listed for COc1ccc(F)cc1C(=O)NCc1ccc(-c2nn([C@@H](C)C(F)(F)F)c(N)c2C(N)=O)cc1 ?
Marked response: 24.69%

----------
molecular target: Aurora B (Homo sapiens, UniProt Q96GD4); test: Kinase panel profiling at 1 µmol/L (mobility shift assay, Carna); details: AurB; 1 µmol/L of BTK inhibitor
Recorded Percentage inhibition of kinase enzyme activity values for a group of compounds are listed next.
Your answer is read as %, so omit the unit and give the number.

C=CC(=O)N1CCC[C@@H](n2nc(-c3ccc(Oc4ccccc4)cc3)c3c(N)ncnc32)C1 = -1.10
CC#CC(=O)N1CCC[C@H]1c1nc(-c2ccc(C(=O)Nc3ccccn3)cc2)c2c(N)nccn12 = 10.86
O=C(c1ccc(Oc2ccccc2)cc1Cl)c1c[nH]c2ncnc(N[C@@H]3CC[C@@H](CO)OC3)c12 = 57.52

Now look at this one.
Exam item: What value of measured Percentage inhibition of kinase enzyme activity is listed for COc1ccc(F)cc1C(=O)NCc1ccc(-c2nn([C@@H](C)C(F)(F)F)c(N)c2C(N)=O)cc1 ?
Marked response: 88.69

----------
target: CaMK1α (Homo sapiens, UniProt Q14012); construct: purchased Carna Biosciences; assay: Kinase panel profiling at 1 µmol/L (mobility shift assay, Carna); assay type: biochemical; conditions: 1 µmol/L of BTK inhibitor
Sequence (Q14012 whole entry): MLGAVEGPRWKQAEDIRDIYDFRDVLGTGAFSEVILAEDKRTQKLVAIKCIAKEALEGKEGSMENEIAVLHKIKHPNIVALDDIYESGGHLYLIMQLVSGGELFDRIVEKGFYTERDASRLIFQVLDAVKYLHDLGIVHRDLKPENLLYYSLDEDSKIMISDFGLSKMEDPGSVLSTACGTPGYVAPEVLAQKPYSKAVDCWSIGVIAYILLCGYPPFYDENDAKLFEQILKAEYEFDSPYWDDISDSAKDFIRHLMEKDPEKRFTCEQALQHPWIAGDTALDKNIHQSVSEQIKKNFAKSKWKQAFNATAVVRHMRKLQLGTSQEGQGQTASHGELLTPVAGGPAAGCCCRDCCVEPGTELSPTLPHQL
endpoint_label: Percentage inhibition of kinase enzyme activity
Give the number first and the unit second.

Here are 3 compounds together with their reported answers.
C=CC(=O)N1CCC[C@@H](n2nc(-c3ccc(Oc4ccccc4)cc3)c3c(N)ncnc32)C1 [ibrutinib] = 13.82%
COc1ccc(F)cc1C(=O)NCc1ccc(-c2nn([C@@H](C)C(F)(F)F)c(N)c2C(N)=O)cc1 [pirtobrutinib] = -9.87%
O=C(c1ccc(Oc2ccccc2)cc1Cl)c1c[nH]c2ncnc(N[C@@H]3CC[C@@H](CO)OC3)c12 [nemtabrutinib] = 11.41%

Now look at this one.
Exam item: What value of measured Percentage inhibition of kinase enzyme activity is listed for CC#CC(=O)N1CCC[C@H]1c1nc(-c2ccc(C(=O)Nc3ccccn3)cc2)c2c(N)nccn12 [acalabrutinib] ?
Marked response: -4.29%

----------
biological target: CDK6/CycD3 (Homo sapiens); construct: purchased Carna Biosciences; test: Kinase panel profiling at 1 µmol/L (mobility shift assay, Carna); type: biochemical; conditions: 1 µmol/L of BTK inhibitor
Sequence (Q00534 whole entry): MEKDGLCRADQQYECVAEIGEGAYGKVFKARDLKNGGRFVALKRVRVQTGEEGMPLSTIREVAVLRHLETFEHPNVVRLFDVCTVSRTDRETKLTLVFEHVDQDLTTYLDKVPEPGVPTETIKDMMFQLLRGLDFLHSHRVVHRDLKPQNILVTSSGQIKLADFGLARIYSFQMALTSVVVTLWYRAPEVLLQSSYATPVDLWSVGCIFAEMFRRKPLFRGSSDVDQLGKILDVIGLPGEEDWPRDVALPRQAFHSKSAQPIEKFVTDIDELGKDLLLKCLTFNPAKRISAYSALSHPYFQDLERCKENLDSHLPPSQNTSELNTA
Sequence (P30281 whole entry partner): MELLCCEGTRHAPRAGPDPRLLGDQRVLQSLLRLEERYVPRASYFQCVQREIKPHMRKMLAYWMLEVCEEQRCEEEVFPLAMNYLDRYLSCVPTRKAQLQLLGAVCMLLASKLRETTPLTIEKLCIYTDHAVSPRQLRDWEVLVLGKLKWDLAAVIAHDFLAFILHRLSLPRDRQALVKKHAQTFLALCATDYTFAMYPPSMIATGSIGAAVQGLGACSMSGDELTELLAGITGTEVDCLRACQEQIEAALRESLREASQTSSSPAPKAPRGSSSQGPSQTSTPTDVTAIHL
Recorded Percentage inhibition of kinase enzyme activity values for a group of compounds are listed next.
Your answer is read as %, so omit the unit and give the number.

Here are 3 compounds together with their reported answers.
COc1ccc(F)cc1C(=O)NCc1ccc(-c2nn([C@@H](C)C(F)(F)F)c(N)c2C(N)=O)cc1 = -5.97
C=CC(=O)N1CCC[C@@H](n2nc(-c3ccc(Oc4ccccc4)cc3)c3c(N)ncnc32)C1 = 4.32
O=C(c1ccc(Oc2ccccc2)cc1Cl)c1c[nH]c2ncnc(N[C@@H]3CC[C@@H](CO)OC3)c12 = 0.23

Exam item: What value of measured Percentage inhibition of kinase enzyme activity is listed for CC#CC(=O)N1CCC[C@H]1c1nc(-c2ccc(C(=O)Nc3ccccn3)cc2)c2c(N)nccn12 ?
Marked response: 2.94

----------
target: UniProt Q9Y2K2; assay: Kinase enzyme activity assay at 1 mmol/L ATP (Carna)
endpoint_label: pIC50
Interpret pIC50 as the negative base-10 log of the concentration measured in mol/L.

Exam item: What value of measured pIC50 is listed for O=C(c1ccc(Oc2ccccc2)cc1Cl)c1c[nH]c2ncnc(N[C@@H]3CC[C@@H](CO)OC3)c12 ?
Marked response: 5.03
